Test system: PPARg:RXRa DBDmut IVT, anti-RXR (DBD mutation: RXRa K156A/R161A, NR concentration 270 nM, RXRa partner concentration 90 nM)
Test: PBM binding z-score (relative to random genomic background probes); higher = stronger binding; sequences stand for … in GC…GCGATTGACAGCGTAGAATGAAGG
Rule: PBM binding z-score of 3 or more gives 1 (yes); anything lower gives 0 (no).

Query string: Check if PBM binding z-score >= 3 (inclusive). Item: `ACTATTAGTTGAATTAGGGCAACCGATACGACGC`
Result string: 0 (no)

Query string: Determine whether measured PBM binding z-score meets or exceeds 3 for `GCTTACGGGTCAAAGGATATAGCATGAATAGAAT`
Result string: 1 (yes)

Query string: Given `TCATATGGGTAAAGGTGAAAGTCGAACGATATGA` , state whether its PBM binding z-score is at least 3.
Result string: 1 (yes)

Query string: Check the entry `CGTCAAAGTTCAACTAAGGTAACGTGAAGCACGC` : does PBM binding z-score equal or exceed 3?
Result string: 0 (no)

Query string: Exam item: decide whether the reported PBM binding z-score for `GCGACCGGGGCATCAGCAGGTTACCATAACTTAA` is at least 3.
Result string: 0 (no)

Query string: # check: PBM binding z-score of `CCGACTGGGGCAAAAGGTTACCATAAGCCAGCCC` is greater than or equal to 3
Result string: 1 (yes)

Query string: Say whether `ACGATTAGTTGAGACGAGGGCAACCGATAGGTTG` shows PBM binding z-score of 3 or more.
Result string: 0 (no)

Query string: Kindly determine if PBM binding z-score recorded for `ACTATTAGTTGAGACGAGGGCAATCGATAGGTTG` is above or exactly 3.
Result string: 0 (no)

Query string: Could you please find out whether `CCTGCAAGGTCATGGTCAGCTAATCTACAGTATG` has PBM binding z-score that meets 3 or exceeds it?
Result string: 0 (no)

Query string: Record `TCTAGTAGGTTAGGGGCATTCAGAATGGCGTCGA` ; criterion: PBM binding z-score no lower than 3. Met?
Result string: 1 (yes)

Query string: Exam item: decide whether the reported PBM binding z-score for `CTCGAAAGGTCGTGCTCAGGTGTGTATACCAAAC` is at least 3.
Result string: 0 (no)

Query string: Does the reported PBM binding z-score for `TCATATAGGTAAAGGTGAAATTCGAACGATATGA` fall at or above the 3 mark?
Result string: 1 (yes)

Query string: Assess whether reported PBM binding z-score for `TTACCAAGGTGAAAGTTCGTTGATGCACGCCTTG` sits at 3 or higher.
Result string: 0 (no)

Query string: Kindly determine if PBM binding z-score recorded for `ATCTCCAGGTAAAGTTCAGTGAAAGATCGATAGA` is above or exactly 3.
Result string: 0 (no)

Query string: Decide: PBM binding z-score of `CCTACTGGACCATCAGGTCATTGATATCAACGTT` >= 3?
Result string: 0 (no)

Query string: Given the entry `CTCGAAAGGTCGGTTGAGCTGAGTATACGGATAA` , answer whether its PBM binding z-score meets or surpasses 3.
Result string: 0 (no)

Query string: Please indicate if the recorded PBM binding z-score for `TCGAGTAGGTTACCAATGGGGCATCCAGCTTTCT` meets or exceeds 3.
Result string: 1 (yes)

Query string: Is the recorded value of PBM binding z-score equal to or greater than 3 for this sequence? `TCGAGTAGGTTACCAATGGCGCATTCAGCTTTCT`
Result string: 1 (yes)

Query string: Assess whether reported PBM binding z-score for `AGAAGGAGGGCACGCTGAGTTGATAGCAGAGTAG` sits at 3 or higher.
Result string: 1 (yes)

Query string: Reported PBM binding z-score reaches at least 3 for `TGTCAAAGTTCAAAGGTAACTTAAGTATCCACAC` ?
Result string: 0 (no)

Query string: Answer whether PBM binding z-score of `CATACTGGGCCATTCAGAGGTCATTGATCATATG` is greater than or equal to 3.
Result string: 1 (yes)

Query string: Identify whether the reported PBM binding z-score of the following sequence is 3 or greater: `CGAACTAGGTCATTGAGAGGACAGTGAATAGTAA`
Result string: 1 (yes)

Query string: In plain terms: is recorded PBM binding z-score at least 3 for `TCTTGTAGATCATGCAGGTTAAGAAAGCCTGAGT` ?
Result string: 0 (no)

Query string: PBM binding z-score >= 3 for `ATATGTAGGTTACATCCGGGTCCTTCAGGCTATG` ?
Result string: 1 (yes)

Query string: hey, is PBM binding z-score for this one >= 3? `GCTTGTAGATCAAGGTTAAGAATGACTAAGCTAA`
Result string: 0 (no)

Query string: Dear colleague, could you confirm whether `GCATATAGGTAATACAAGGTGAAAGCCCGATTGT` has PBM binding z-score at or above 3?
Result string: 1 (yes)

Query string: # bool: PBM binding z-score of `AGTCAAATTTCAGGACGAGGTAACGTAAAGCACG` >= 3
Result string: 0 (no)

Query string: Threshold query (PBM binding z-score >= 3) on `CCTACTGGTCCATTCAGAGGTCATTGATCATATG`
Result string: 0 (no)

Query string: Could you tell me if the measured PBM binding z-score of `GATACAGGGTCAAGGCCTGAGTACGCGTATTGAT` reaches 3 or more?
Result string: 0 (no)
